target desc: T1, HLA-DP402 molecule (DPB1*0402) (human, UniProt P20036 29-222, limits assumed)
T1 construct: HLA class II heterodimer; also called DP*0402
assay info: competitive ELISA, tracer Oxy 271-287
Field 'label' (enum: YES / NO). Set to YES when IC50 is strictly under 4 µM; else NO.

Check out these entries, answers already filled in.
INSERT INTO assay_data (binder, qualitative_label) VALUES
  ('CAFLSVKKQFEELTL (synthetic 15-mer) [survivin peptide 84-98]', 'YES'),
  ('ERMAEAGFIHCPTEN (synthetic 15-mer) [survivin peptide 36-50]', 'YES'),
  ('MGAPTLPPAWQPFLK (synthetic 15-mer) [survivin peptide 1-15]', 'NO'),
  ('PAWQPFLKDHRISTF (synthetic 15-mer) [survivin peptide 8-22]', 'NO'),
  ('AKKVRRAIEQLAAMD (synthetic 15-mer) [survivin peptide 128-142]', 'NO'),
  ('KNWPFLEGCACTPER (synthetic 15-mer) [survivin peptide 23-37]', 'YES');

Continue with the binder presented below.
Query block: Decide: IC50 of KKQFEELTLGEFLKL (synthetic 15-mer) [survivin peptide 90-104] strictly below 4 µM?
Result block: YES
